Molecular target: T1, Cyno GDF15 Fc (cyno, UniProt G7PWZ3 193-308, limits assumed)
T1 construct: also called cyno GDF15-Fc fusion; not shown: Fc part
T1 sequence: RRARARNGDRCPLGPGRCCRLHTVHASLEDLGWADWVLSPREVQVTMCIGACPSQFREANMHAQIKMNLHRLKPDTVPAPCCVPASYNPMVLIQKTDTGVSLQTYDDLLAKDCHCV
Test: BLI Octet; antigen on sensor, 100 nM Fab (monovalent)

BINDER	Kd
GDF15 antibody agent Clone J, Fab (Fab, V domains shown, Fab; CH1 and CL of the Fab not specified; also called Fab of Clone J) VH: QVQLVQSGAEVKKPGASVKVSCKASGYTFTSYGINWVRQAPGQGLEWMGWIDAYSGSTNYAQKLQGRVTMTTDTSTSTAYMELRSLRSDDTAVYYCARGPGQYADVDVWGQGTMVTVSS VL: DIQMTQSPSSVSASVGDRVTITCRASQGISSWLAWYQQKPGKAPKLLIYAASSLQSGVPSRFSGSGSGTDFTLTISSLQPEDFATYYCQQANSFPITFGGGTKVEIK	0.769 nM
GDF15 antibody agent Clone M, Fab (Fab, V domains shown, Fab; CH1 and CL of the Fab not specified; also called Fab of Clone M) VH: QVQLVQSGAEVKKPGASVKVSCKASGYTFDSYGINWVRQAPGQGLEWMGWISAYSGDTAYAQELQGRVTMTTDTSTSTAYMELRSLRSDDTAVYYCVRDTQYGGSPYWGQGTLVTVSS VL: EIVMTQSPATLSVSPGERATLSCRASQSVSSNLAWYQQKPGQAPRLLIYGASTRATGIPARFSGSGSGTEFTLTISSLQSEDFAVYYCQQYNNWPITFGGGTKVEIK	1.91 nM
GDF15 antibody agent Clone P, Fab (Fab, V domains shown, Fab; CH1 and CL of the Fab not specified; also called Fab of Clone P) VH: QVQLVQSGAEVKKPGATVKVSCKASGYTFDSYGIHWVRQAPGQGLEWMGWITAYSGDTVYAQKLQGRVTMTTDTSTSTAYMELRSLRSDDTAVYYCARESGQTSSALGPWGQGTLVTVSS VL: DIQMTQSPSSVSASVGDRVTITCRASQGISRWLAWYQQKPGKAPKLLIYAASSLQSGVPSRFSGSGSGTDFTLTISSLQPEDFATYYCQQGASFPLTFGGGTKVEIK	1.72 nM
